- System: JVM-2
- TEST_DESCRIPTION: Cytotoxicity against human JVM2 cells after 72 hrs by XTT colorimetric assay
- Assay type: functional, cell-based
- RUN_PARAMETERS: JVM-2, 72 h
PROPERTY_MEASURED: pIC50
Numbers only, as −log10 of the molar value.

Item: `CC(=O)O[C@@H](C)/C=C\C(=O)N[C@H]1CC[C@@H](C/C=C(C)/C=C/[C@@H]2C[C@]3(CO3)CC(C)(C)O2)CC1` Test system: JVM-2 Read-out: pIC50 Value: ? 6.89
